Biological target: T1, Karyopherin beta2 (Kapβ2), full length, wild type (human, UniProt Q92973-2 1-890)
T1 construct: mature; Expressed as a GST fusion from pGEX-Tev and purified; Also used here for the Kapβ2 added in the GST pull-downs; also called Transportin
T1 sequence (looked up): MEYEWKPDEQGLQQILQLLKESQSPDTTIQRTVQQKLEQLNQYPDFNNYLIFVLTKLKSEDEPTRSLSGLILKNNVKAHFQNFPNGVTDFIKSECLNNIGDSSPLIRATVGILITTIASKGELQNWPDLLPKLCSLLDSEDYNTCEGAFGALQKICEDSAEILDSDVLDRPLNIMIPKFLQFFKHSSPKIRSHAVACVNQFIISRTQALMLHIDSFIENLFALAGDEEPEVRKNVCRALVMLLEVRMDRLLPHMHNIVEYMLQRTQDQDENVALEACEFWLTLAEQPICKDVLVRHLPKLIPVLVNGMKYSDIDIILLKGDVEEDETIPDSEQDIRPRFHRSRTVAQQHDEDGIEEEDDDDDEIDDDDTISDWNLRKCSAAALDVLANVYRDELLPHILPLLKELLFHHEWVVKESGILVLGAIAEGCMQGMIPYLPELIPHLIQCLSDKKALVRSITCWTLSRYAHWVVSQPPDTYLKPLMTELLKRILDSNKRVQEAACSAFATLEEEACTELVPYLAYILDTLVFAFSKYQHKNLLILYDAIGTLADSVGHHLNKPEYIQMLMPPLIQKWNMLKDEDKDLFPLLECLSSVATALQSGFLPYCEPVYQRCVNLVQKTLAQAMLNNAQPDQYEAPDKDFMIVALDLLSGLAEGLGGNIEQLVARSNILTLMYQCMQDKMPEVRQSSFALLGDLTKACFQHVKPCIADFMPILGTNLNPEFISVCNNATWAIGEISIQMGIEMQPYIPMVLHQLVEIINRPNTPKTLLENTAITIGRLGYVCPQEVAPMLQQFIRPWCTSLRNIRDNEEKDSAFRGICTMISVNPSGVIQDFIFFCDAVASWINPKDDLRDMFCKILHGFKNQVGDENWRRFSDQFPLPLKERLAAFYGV
Experiment: ITC; MBP-hnRNP M(41-70) mutant titrated into full-length Kapβ2
No end group written: not given here.
Give pKd for every item shown.
Answers are plain numbers, as −log10 of the molar value.

Below are worked cases with known answers.
[[record]]
binder = "ERPAQNEKRKEKNIKAGGNRFEPYANPTKR (other, not shown: large carriers; small tags and cut ends, also: MBP fusion partner, not in chain) [MBP-hnRNP M(41-70) R56A]"
value_kind = "pKd"
observed_value = 7.86

[[record]]
binder = "ERPAQNEKRAEKNIKRGGNRFEPYANPTKR (other, not shown: large carriers; small tags and cut ends, also: MBP fusion partner, not in chain) [MBP-hnRNP M(41-70) K50A]"
value_kind = "pKd"
observed_value = 7.79


Kindly review the next binder as well.
Request the reported pKd associated with ERPAQNEKRAAAAAAAGGNRFEPYANPTKR (other, not shown: large carriers; small tags and cut ends, also: MBP fusion partner, not in chain, also called all seven residues of 50KEKNIKR56 mutated to alanines) [MBP-hnRNP M(41-70) K50A/E51A/K52A/N53A/I54A/K55A/R56A]
5.92
